All figures here come from patent US20120003245A1.

Kd values for the binders below.
- assay_target: α-cobratoxin (Naja kaouthia, UniProt P01391)
- Sequence (P01391 whole entry): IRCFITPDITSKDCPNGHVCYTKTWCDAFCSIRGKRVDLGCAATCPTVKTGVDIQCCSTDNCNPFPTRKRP

Worked cases, Kd given:
anti-α-cobratoxin VHH C2 (VHH) VHH: QVKLEESGGGLVLPGGSLRLSCAASGSISSIYAMGWYRQAPGKQREVVAVITNGNSPNYADSVKGRFTISRDNAKNTVYLQMNSLKPEDTAVYYCNVEGVRYGDSWYDGDYWGQGTQVTVSS
0.4 nM
anti-α-cobratoxin VHH C20 (VHH) VHH: QVKLEESGGGLVQPGGSLRLSCVGSGSISSFNGMGWYRQVPGKQRELVAFISSGGRSKYTDSVKGRFTISGDNAKSTVYLQMINLKPEDTAVYYCNVGSVLSYVTGNYYEPSDYWGQGTQVTVSS
1 nM
anti-α-cobratoxin VHH C43 (VHH) VHH: RVKLEESGGGLVQAGGSLRLSCAVSGSTFDDYAIGWYRQAPGKQREVVAVITNGNSPNYADSVKGRFTISRDNAKNTVYLQMNSLKPEDTAVYYCNVEGVRYGDSWYDGDYWGQGTQVTVSS
24 nM

Let us move to another entry and its Kd.
Ask | Form field: reported Kd of anti-α-cobratoxin VHH C19 (VHH) VHH: QVKLEESGGGLAQAGGSLRLSCIGSGDISSFNAMGWYRQVPGKQRELVAFISSGGRSKYTDSVKGRFTISGDNAKNTVYLQMIDLKPEDTAVYYCNAGSVVSYETGNYYEPSNYWGQGTQVTVSS
Reply | 25 nM
